- Run Description: Half life in Sprague-Dawley rat at 1 mg/kg, sc administered as single dose by UPLC-MS/MS analysis
- Type: ADME, organism-based
- Test Settings: in vivo
Quantity Measured: half-life (h)

a: O=C(Nc1nc2ccccc2s1)c1ccc(OC(F)F)c(OCC2CC2)c1
b: O=C(Nc1ccc2ncsc2c1)c1ccc(OC(F)F)c(OCC2CC2)c1
Asked: Compare the recorded half-life of a and b ; state which is larger. Your answer should be the label attached to the chosen record.
Given back: b
(b: 22 h, a: 9.82 h)

A: O=C(Nc1c(Cl)cncc1Cl)c1ccc(OC(F)F)c(OCC2CC2)c1 [ROFLUMILAST]
B: O=C(Nc1ccc2nc(S)sc2c1)c1ccc(OC(F)F)c(OCC2CC2)c1
Asked: Compare the recorded half-life of A and B ; state which is larger. Your answer should be the label attached to the chosen record.
Given back: B
(B: 22 h, A: 6.94 h)
